Test system: Enterococcus sp.
protocolNotes: in vitro antibacterial evaluation, MIC by broth dilution
Type: cell-based
conditionDetails: broth dilution, 18 hours at 35° C.
From the text: Methods for in vitro Antibacterial Evaluation (Table 1) […]
Exercise: for every item that follows, state its recorded MIC Enterococcus avium (GC 4558).
One number for each entry, in µg/mL.

[[record]]
compound = "N=C1NCC(C(O)C2NC(=O)C(Cc3ccc(OC4OC(CO)C(OC5OC6COC7(OC6C(O)C5O)C5CC6CC(C5)CC7C6)C(O)C4O)cc3)NC(=O)C(Cc3ccccc3)NC(=O)CNC(=O)C(CO)NC(=O)C(C(O)C3CNC(=N)N3C3OC(CO)C(O)C(O)C3O)NC2=O)N1 (centres unmarked)"
outputunit = "µg/mL"
numericresult = 2


Please go through the list and note MIC Enterococcus avium (GC 4558) for each compound.
1. CN=C1N(C)CC(C(O)C2NC(=O)C(Cc3ccc(OC4OC(CO)C(OC5OC6COC7(OC6C(O)C5O)C5CC6CC(C5)CC7C6)C(O)C4O)cc3)NC(=O)C(C(C)c3ccccc3)NC(=O)CNC(=O)C(CO)NC(=O)C(C(O)C3CN(C)C(=NC)N3C3OC(CO)C(O)C(O)C3O)NC2=O)N1C (centres unmarked)
2. N=C1NCC(C(O)C2NC(=O)C(Cc3ccc(OC4OC(CO)C(OC5OC6COC(c7ccccc7)OC6C(O)C5O)C(O)C4O)cc3)NC(=O)C(CC3CCCCC3)NC(=O)CNC(=O)C(CO)NC(=O)C(C(O)C3CNC(=N)N3C3OC(CO)C(O)C(O)C3O)NC2=O)N1 (centres unmarked)
3. COc1ccc2cc(COCC3OC(OC4C(CO)OC(Oc5ccc(CC6NC(=O)C(C(C)c7ccccc7)NC(=O)CNC(=O)C(CO)NC(=O)C(CC7CNC(=N)N7C7OC(CO)C(O)C(O)C7O)NC(=O)C(CC7CNC(=N)N7)NC6=O)cc5)C(O)C4O)C(O)C(O)C3O)ccc2c1 (centres unmarked)
4. CC(c1ccccc1)C1NC(=O)CNC(=O)C(CO)NC(=O)C(CC2CN(Cc3ccccc3)C(=N)N2C2OC(CO)C(O)C(O)C2O)NC(=O)C(CC2CNC(=N)N2)NC(=O)C(Cc2ccc(OC3OC(CO)C(OC4OC5COC6(OC5C(O)C4O)C4CC5CC(C4)CC6C5)C(O)C3O)cc2)NC1=O (centres unmarked)
5. CC(c1ccccc1)C1NC(=O)CNC(=O)C(CO)NC(=O)C(C(O)C2CN(Cc3ccc(C(C)(C)C)cc3)C(=N)N2C2OC(CO)C(O)C(O)C2O)NC(=O)C(C(O)C2CNC(=N)N2)NC(=O)C(Cc2ccc(OC3OC(CO)C(OC4OC(CO)C(O)C(O)C4O)C(O)C3O)cc2)NC1=O (centres unmarked)
6. CC(c1ccccc1)C1NC(=O)CNC(=O)C(CO)NC(=O)C(C(O)C2CNC(=N)N2C2OC(CO)C(O)C(O)C2O)NC(=O)C(C(O)C2CNC(=N)N2)NC(=O)C(Cc2ccc(OC3OC(CO)C(OC4OC(COCC=Cc5ccccc5)C(O)C(O)C4O)C(O)C3O)cc2)NC1=O (centres unmarked)
7. CC(c1ccccc1)C1NC(=O)CNC(=O)C(CO)NC(=O)C(C(O)C2CN(CCCCCCCCCCCCO)C(=N)N2C2OC(CO)C(O)C(O)C2O)NC(=O)C(C(O)C2CNC(=N)N2)NC(=O)C(Cc2ccc(OC3OC(CO)C(OC4OC(CO)C(O)C(O)C4O)C(O)C3O)cc2)NC1=O (centres unmarked)
8. CC(c1ccccc1)C1NC(=O)CNC(=O)C(CO)NC(=O)C(CC2CNC(=N)N2C2OC(CO)C(O)C(O)C2O)NC(=O)C(CC2CNC(=N)N2)NC(=O)C(Cc2ccc(OC3OC(CO)C(OC4OC(COCc5ccc(OCc6ccccc6)cc5)C(O)C(O)C4O)C(O)C3O)cc2)NC1=O (centres unmarked)

[128, 2, 16, 32, 128, 16, 64, 8]

Please go through the list and note MIC Enterococcus avium (GC 4558) for each compound.
1. CC(c1ccccc1)C1NC(=O)CNC(=O)C(CO)NC(=O)C(C(O)C2CN(Cc3ccc4ccccc4c3)C(=N)N2C2OC(CO)C(O)C(O)C2O)NC(=O)C(C(O)C2CNC(=N)N2)NC(=O)C(Cc2ccc(OC3OC(CO)C(OC4OC(CO)C(O)C(O)C4O)C(O)C3O)cc2)NC1=O (centres unmarked)
2. CC(c1ccccc1)C1NC(=O)CNC(=O)C(CO)NC(=O)C(C(O)C2CNC(=N)N2C2OC(CO)C(O)C(O)C2O)NC(=O)C(C(O)C2CNC(=N)N2)NC(=O)C(Cc2ccc(OC3OC(CO)C(OC4OC5COC6(CCCCCCCCCCCC6)OC5C(O)C4O)C(O)C3O)cc2)NC1=O (centres unmarked)

64
16

# credit: patent US6914045B2
